Read-out record for Retinoic acid receptor beta (Homo sapiens): pKi
pKi: −log10 of the molar value.
observed_property: pKi

>>> result("CC(/C=C/C=C(\\C)c1cc(C(C)(C)C)cc(C(C)(C)C)c1)=C\\C(=O)O (stereo in doubt; form 2)")
9.15
>>> result("CC(/C=C/C=C(\\C)c1cc(C(C)(C)C)cc(C(C)(C)C)c1)=C\\C(=O)O (stereo in doubt; form 1)")
7.05

###

- tested_system: Retinoic acid receptor alpha (Homo sapiens) (UniProt P10276)
- Sequence (P10276 whole entry): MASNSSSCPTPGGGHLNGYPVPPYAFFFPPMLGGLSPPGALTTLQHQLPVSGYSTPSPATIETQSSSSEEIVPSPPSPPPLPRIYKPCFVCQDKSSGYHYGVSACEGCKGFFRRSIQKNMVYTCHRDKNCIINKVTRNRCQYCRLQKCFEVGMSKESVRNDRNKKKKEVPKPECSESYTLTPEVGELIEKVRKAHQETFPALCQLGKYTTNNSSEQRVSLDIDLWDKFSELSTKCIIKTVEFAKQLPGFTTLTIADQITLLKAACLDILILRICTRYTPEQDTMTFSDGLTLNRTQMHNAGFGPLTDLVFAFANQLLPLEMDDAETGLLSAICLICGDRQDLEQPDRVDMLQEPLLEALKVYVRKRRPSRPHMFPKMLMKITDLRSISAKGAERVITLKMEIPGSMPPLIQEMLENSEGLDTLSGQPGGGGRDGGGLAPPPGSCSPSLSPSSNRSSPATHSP
- assay_method_text: Percent transcriptional activation relative to ATRA in CV-1 cells expressing Retinoic acid receptor RAR alpha
- Format: functional, cell-based
observed_property: Efficacy (%)

>>> result("CC(/C=C/C=C(\\C)c1cc(C(C)(C)C)cc(C(C)(C)C)c1)=C\\C(=O)O (stereo in doubt; form 2)")
31
>>> result("CC(/C=C/C=C(\\C)c1cc(C(C)(C)C)cc(C(C)(C)C)c1)=C\\C(=O)O (stereo in doubt; form 1)")
39
>>> result("CC1=C(/C=C/C(C)=C\\C=C\\C(C)=C\\C(=O)O)C(C)(C)CCC1")
81
>>> result("CC1=C(/C=C/C(C)=C/C=C/C(C)=C/C(=O)O)C(C)(C)CCC1")
100
